Target: T1, SHANK1, Q9Y566
T1 sequence (Q9Y566 658-767, limits assumed, looked up): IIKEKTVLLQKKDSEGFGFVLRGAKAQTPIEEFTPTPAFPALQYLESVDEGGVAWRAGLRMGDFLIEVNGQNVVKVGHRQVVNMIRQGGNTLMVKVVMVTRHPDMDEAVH
Experiment: holdup assay
Parameters: key: below the threshold = too weak to quantify, mostly under pKd 3.1 to 4
Details: plain residues with an end cap or a label only (N-terminal biotin on a linker: ttds)
Parameter: pKd

Consider the following illustrative entries.
Binder: SEKHFRETEV [HTLV1-TAX1, P03409]
Result: below the threshold
//
Binder: LCALPKVTTV [AGMAT, Q9BSE5]
Result: below the threshold
//
Binder: DPRNTQTSQI [ABRAXAS2, Q15018]
Result: below the threshold
//
Binder: PKRPFVESNV [TANC2, Q9HCD6]
Result: below the threshold

Problem: Determine its reported pKd: RTRQRNETQV [HPV51-E6, P26554]
Solution: below the threshold

Problem: Determine its reported pKd: VNKVWDQSSV [CIT, O14578]
Solution: 3.57
